assay: LNP size and polydispersity index (PDI) by dynamic light scattering (DLS); format: physicochemical; conditions: Table 1; LNP lipid:DSPC:Cholesterol:DMG-PEG2k 50:10:38.5:1.5 mol %; hEPO mRNA; N:P 6
quantity: PDI

// solved cases for PDI follow
[
  {
    "molecule": "CCCCCCCC/C=C\\CCCCCCCC(=O)OCCN(CCOC(=O)CCCCCCC/C=C\\CCCCCCCC)C(=O)C(N)Cc1c[nH]cn1 (centres unmarked) [Compound 125]",
    "PDI": 0.46
  },
  {
    "molecule": "CCCCCCCCCCCC(=O)OCCN(CCOC(=O)CCCCCCCCCCC)C(=O)C(N)Cc1ccccc1 (centres unmarked) [Compound 115]",
    "PDI": 0.291
  }
]

A: CCCCCCCCC(CCCCCC)C(=O)OCCN(CCOC(=O)C(CCCCCC)CCCCCCCC)C(=O)CN (centres unmarked) [Compound 105]
B: CCCCCCCC/C=C\CCCCCCCC(=O)OCCN(CCOC(=O)CCCCCCC/C=C\CCCCCCCC)C(=O)C(N)CO (centres unmarked) [Compound 132]
C: CCCCCCCCCCCC(=O)OCCN(CCOC(=O)CCCCCCCCCCC)C(=O)C(N)Cc1c[nH]cn1 (centres unmarked) [Compound 127]
Query: Sort the 3 molecules by PDI; largest first, smallest last. # output: labels, in the requested order
Response: C, A, B

----------
experiment: LNP Zeta potential measured using a Zetasizer (Malvern); assay type: physicochemical; details: Table 1; LNP lipid:DSPC:Cholesterol:DMG-PEG2k 50:10:38.5:1.5 mol %; hEPO mRNA; N:P 6
quantity: Zeta potential (mV)

[
  {
    "molecule": "CCCCCCCCCC(=O)OCCN(CCOC(=O)CCCCCCCCC)C(=O)C(N)Cc1c[nH]cn1 (centres unmarked) [Compound 128]",
    "data_value": 6.43
  },
  {
    "molecule": "CCCCCCCCCC(=O)OCCN(CCOC(=O)CCCCCCCCC)C(=O)C(C)N (centres unmarked) [Compound 110]",
    "data_value": "−4.943"
  }
]

A: CCCCCCCCCC(=O)OCCN(CCOC(=O)CCCCCCCCC)C(=O)C(N)CO (centres unmarked) [Compound 135]
B: CCCCCCCCCCCC(=O)OCCN(CCOC(=O)CCCCCCCCCCC)C(=O)CN [Compound 103]
Query: Please indicate which has the smaller reported Zeta potential: A , or B . Please indicate the selected item by its label.
Response: A
(A: 2.909 mV, B: 9.778 mV)

1: CCCCCCCCCCCC(=O)OCCN(CCOC(=O)CCCCCCCCCCC)C(=O)C(N)CCCCN (centres unmarked) [Compound 121]
2: CCCCCCCCC(CCCCCC)C(=O)OCCN(CCOC(=O)C(CCCCCC)CCCCCCCC)C(=O)C(C)N (centres unmarked) [Compound 111]
3: CCCCCCCCC(CCCCCC)C(=O)OCCN(CCOC(=O)C(CCCCCC)CCCCCCCC)C(=O)C(N)CO (centres unmarked) [Compound 130]
Query: Please put the entries in order of rising Zeta potential. Answer by writing out the labels in the requested order.
Response: 3, 2, 1
(3: −5.059 mV, 2: −3.357 mV, 1: 8.346 mV)

P: CCCCCCCCCCCC(=O)OCCN(CCOC(=O)CCCCCCCCCCC)C(=O)C(N)Cc1c[nH]cn1 (centres unmarked) [Compound 127]
Q: CCCCCCCCCCCC(=O)OCCN(CCOC(=O)CCCCCCCCCCC)C(=O)C(C)N (centres unmarked) [Compound 109]
R: CCCCCCCC/C=C\CCCCCCCC(=O)OCCN(CCOC(=O)CCCCCCC/C=C\CCCCCCCC)C(=O)C(N)CO (centres unmarked) [Compound 132]
S: CCCCCCCCCC(=O)OCCN(CCOC(=O)CCCCCCCCC)C(=O)CN [Compound 104]
Query: Put the items in sequence by Zeta potential, from largest down. Give your ranking as a list of the labels in the requested order.
Response: Q, P, S, R

A: CCCCCCCCCC(=O)OCCN(CCOC(=O)CCCCCCCCC)C(=O)C(N)CCCCN (centres unmarked) [Compound 122]
B: CCCCCCCCC(CCCCCC)C(=O)OCCN(CCOC(=O)C(CCCCCC)CCCCCCCC)C(=O)C(N)CCCCN (centres unmarked) [Compound 123]
C: CCCCCCCCC(CCCCCC)C(=O)OCCN(CCOC(=O)C(CCCCCC)CCCCCCCC)C(=O)C(N)Cc1ccccc1 (centres unmarked) [Compound 117]
Query: Rank ascending by Zeta potential. Sort and list the labels as requested.
Response: C, B, A

----------
assay: LNP Zeta potential measured using a Zetasizer (Malvern); type: physicochemical; conditions: Table 10; LNP with hEPO mRNA, Lipid:DSPC:Cholesterol:DMG-PEG2k 50:10:38.5:1.5 mol %, N:P ratio 6
quantity: Zeta potential (mV)

[
  {
    "compound": "CCCCCCCCCC(CCCCCCCCC)C(=O)OCCN(CCOC(=O)C(CCCCCCCCC)CCCCCCCCC)C(=O)CCN(C)CC [Compound 917e]",
    "quantity": "Zeta potential (mV)",
    "uom": "mV",
    "data_value": "−4.2"
  },
  {
    "compound": "CCCCCCCCCCCOC(=O)CCCCCN(CCO)CCCCCCCC(=O)OC(CCCCCCCC)CCCCCCCC [SM-102, reference compound]",
    "quantity": "Zeta potential (mV)",
    "uom": "mV",
    "data_value": "−5.9"
  }
]

a: CCCCCCCCC(CCCCCC)C(=O)OCCCCCCN(CCCCO)CCCCCCOC(=O)C(CCCCCC)CCCCCCCC (stereo not shown) [ALC-0315, reference compound]
b: CCCCCCCCC(CCCCCC)C(=O)OCCN(CCOC(=O)CCCCCCC(C)C)C(=O)CCN(CC)CC (stereo not shown) [Compound 917d]
Query: Of the two listed items, which has the higher Zeta potential (mV)? First: a Second: b // return label of chosen record
Response: b
(b: −3.3 mV, a: −10.3 mV)

----------
assay: Encapsulation efficiency (EE %) by fluorescence based Ribogreen assay; type: physicochemical; details: Table 9; LNP 50:10:38.5:1.5 mol %; hEPO mRNA; N:P 6
quantity: Encapsulation Efficiency % (%)

[
  {
    "compound": "CCCCCCCCC(CCCCCC)C(=O)OCCN(CCOC(=O)C(CCCCCC)CCCCCCCC)C(=O)CN(CC)CC.Cl (stereo not drawn) [Compound 967]",
    "Encapsulation Efficiency % (%)": 97.9
  },
  {
    "compound": "CCCCCCCCC(CCCCCC)C(=O)OCCN(CCOC(=O)C(CCCCCC)CCCCCCCC)C(=O)CN(CC)CCC.Cl (single isomer, unassigned) [Compound 960a]",
    "Encapsulation Efficiency % (%)": 99.7
  },
  {
    "compound": "CCCCCCCC(CCCCCCC)C(=O)OCCN(CCOC(=O)C(CCCCCCC)CCCCCCC)C(=O)CN(C)C.Cl [Compound 962]",
    "Encapsulation Efficiency % (%)": 99.6
  }
]

----------
assay: LNP Zeta potential measured using a Zetasizer (Malvern); type: physicochemical; details: Table 5; LNP 50:10:38.5:1.5 mol %; hEPO mRNA; N:P 6
quantity: Zeta potential (mV)

The following compounds have reported results that may help.
[
  {
    "compound": "CCCCCCCCC(CC)C(=O)OCCN(CCOC(=O)C(CC)CCCCCCCC)C(=O)C(N)Cc1ccccc1 (centres unmarked)",
    "Zeta potential, mV": "−5.824"
  },
  {
    "compound": "CCCCCCCCC(CCCCCC)C(=O)OCCN(CCOC(=O)C(CCCCCC)CCCCCCCC)C(=O)CNCCO (centres unmarked)",
    "Zeta potential, mV": "−0.5189"
  },
  {
    "compound": "CCCCCCCC(CCCCCCC)C(=O)OCCN(CCOC(=O)C(CCCCCCC)CCCCCCC)C(=O)C(C)N (centres unmarked)",
    "Zeta potential, mV": "−5.841"
  },
  {
    "compound": "CCCCCCCCCC(CCCCCCCCC)C(=O)OCCN(CCOC(=O)C(CCCCCCCCC)CCCCCCCCC)C(=O)C(C)N (centres unmarked)",
    "Zeta potential, mV": "−8.485"
  },
  {
    "compound": "CCCCCCC(CCCC)C(=O)OCCN(CCOC(=O)C(CCCC)CCCCCC)C(=O)CN (centres unmarked)",
    "Zeta potential, mV": "−5.94"
  }
]

A: CCCCCCCCCCCCC(CC)C(=O)OCCN(CCOC(=O)C(CC)CCCCCCCCCCCC)C(=O)CN (centres unmarked)
B: CCCCCCCCCC(CCCCCCCCC)C(=O)OCCN(CCOC(=O)C(CCCCCCCCC)CCCCCCCCC)C(=O)C(N)Cc1ccccc1 (centres unmarked)
C: CCCCCCC(CCCC)C(=O)OCCN(CCOC(=O)C(CCCC)CCCCCC)C(=O)C(C)N (centres unmarked)
Query: Form: Sort by [Zeta potential] Order [ ascending ] Put the labels in the requested order and write them down.
Response: B, C, A
(B: −10.9 mV, C: −4.452 mV, A: −2.662 mV)

Source listed as patent US20250268826A1.
